The origin of these recorded values is patent US12012467B2.

Test Target: DCN1 (Homo sapiens (Human), UniProt Q96GG9)
Sequence (Q96GG9 58-259): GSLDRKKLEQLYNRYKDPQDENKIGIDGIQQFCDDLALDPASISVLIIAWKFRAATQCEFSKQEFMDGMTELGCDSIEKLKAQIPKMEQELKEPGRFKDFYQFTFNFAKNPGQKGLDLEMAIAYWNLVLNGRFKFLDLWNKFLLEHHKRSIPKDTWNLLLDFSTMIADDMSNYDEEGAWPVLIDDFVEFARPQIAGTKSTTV
Test Summary: Competitive FP binding assay
Condition: bounds given in μM; read-out: Binding affinity to DCN1 (IC50)
Numbered stars: 1 amine (or outer) side, 2 acyl side, 3 side chain; on linkers, the order of the positions; unused ones are H or OH. Square brackets hold non-standard residues; d marks the D form. Peptide text beside a SMILES is read from it. 2Nal = N[C@@H](Cc1ccc2ccccc2c1)C(=O)O; CO = O=C([*:1])[*:2]
Below, each entry is listed with its recorded IC50.

Past entries and their recorded results:
CCC(=O)N[C@@H](Cc1nc(CC)c(-c2ccccc2)s1)C(=O)N[C@H](CN)Cc1ccccc1 [Example 225]    > 3 µM
CC[C@H](C)[C@H](NC(=O)[C@H](Cc1ccc2ccccc2c1)NC(=O)NC)C(=O)N[C@@H](CCCCN)C(=O)N[C@@H](CC(C)C)C(N)=O [Example 169] ({NHMe-CO}-[2Nal]IKL-NH2)    > 10 µM

Now examine the next entry.
Problem: So what does the record say about IC50 for CC(C)CC(C)C(=O)N[C@@H](Cc1nc2ccc(C(C)C)cc2s1)C(=O)NCCN (stereo partly drawn) [97 & 98] ?
Result: > 10 µM

====

Test Target: DCN1 (Homo sapiens (Human), UniProt Q96GG9)
Test Summary: Competitive FP binding assay
Condition: read-out: Binding affinity to DCN1 (IC50 (nM))
Square brackets hold non-standard residues; d marks the D form. Peptide text beside a SMILES is read from it. * marks the point of attachment. Ala(6-iPr-benzothiazol-2-yl) = CC(C)c1ccc2nc(C[C@H](N)C(=O)O)sc2c1; Abu(4,4,4-F3) = N[C@@H](CC(F)(F)F)C(=O)O; Propionyl = CCC(=O)*
Endpoint Name: IC50 (nM)

Below are worked cases with known answers.
CCC(=O)N[C@@H](Cc1nc2ccc(CC)cc2o1)C(=O)N[C@H](C(=O)N[C@@H](CCCCN)C(=O)N[C@@H]1CCOc2ccccc21)C1CCCC1 [Example 195]    120
CCC(=O)N[C@@H](Cc1nc2ccc(Br)cc2s1)C(=O)N[C@H](CN)Cc1ccccc1 [Example 222]    858
CCC(=O)N[C@@H](Cc1ccc2ccccc2c1)C(=O)N[C@H](C(=O)N[C@@H](CCCCN)C(=O)N[C@H]1CCOc2ccccc21)[C@@H](C)CC [Example 18]    3050

a: CCC(=O)N[C@H](CNC(=O)C1(N)CCCC1)Cc1nc2ccc(C(C)C)cc2s1 [Example 114]
b: CCC(=O)N[C@@H](Cc1nc(C)c(C(C)C)s1)C(=O)N[C@H](C(=O)N[C@@H](CCCCN)C(=O)N[C@@H]1CCOc2ccccc21)C1CCOCC1 [Example 187]
Problem: I'm curious, which of these has a smaller IC50 number: a or b ? Respond using the label that marks the chosen record.
Result: b
(b: 886 nM, a: 1560 nM)

I: CCC(=O)N[C@@H](Cc1nc2ccc(Cl)cc2s1)C(=O)N[C@H](CN)[C@@H](C)CC [Example 213]
II: CCC(=O)N[C@@H](Cc1nc2ccc(C(C)C)cc2s1)C(=O)N[C@@H](CC(F)(F)F)C(=O)N[C@@H](CCCCN)C(=O)N[C@@H](CC(C)C)C(N)=O [Example 284] (Propionyl-[Ala(6-iPr-benzothiazol-2-yl)][Abu(4,4,4-F3)]KL-NH2)
III: CCC(=O)N[C@H](CNC(=O)C1(N)CCC1)Cc1nc2ccc(C(C)C)cc2s1 [Example 113]
Problem: Put the entries in order of IC50, starting with the largest number. // list labels; follow requested order
Result: III, I, II

====

Test Target: DCN1 (Homo sapiens (Human))
Test Summary: Competitive FP binding assay
Condition: bounds given in μM; read-out: Binding affinity to DCN1 (IC50)
Square brackets hold non-standard residues; d marks the D form. Peptide text beside a SMILES is read from it. 2Nal = N[C@@H](Cc1ccc2ccccc2c1)C(=O)O
// reported IC50 for each item listed

CC[C@H](C)[C@@H](CN)NC(=O)[C@@H](N)Cc1nc2ccc(C(C)C)cc2s1 [Example 49]    > 10 µM

Problem: Any idea what IC50 was measured for CCC(=O)N[C@@H](Cc1nc2ccc(Cl)cc2s1)CN(Cc1ccccc1)Cc1ccccc1 [Example 259] ?
Result: > 10 µM

Problem: What does the data say about its IC50? Entry: CC[C@H](C)[C@H](NC(=O)[C@H](Cc1ccc2ccccc2c1)NC(C)=O)C(=O)N[C@@H](CCCCN)C(=O)N[C@@H](CC(C)C)C(N)=O [Example 1] (Ac-[2Nal]IKL-NH2)
Result: > 10 µM

Problem: Entry under review: CCC(=O)N[C@@H](Cc1nc2ccc(C(C)C)cc2s1)C(=O)N[C@@H](CN)Cc1ccccc1 [Example 90] . Reported IC50?
Result: > 5 µM

Problem: What value of measured IC50 is listed for CCC(=O)N[C@@H](Cc1nc2ccc(C(C)C)cc2s1)C(=O)NCCN [Example 53] ?
Result: > 10 µM

Problem: Fill blank: measured IC50 of the compound CCC(=O)N[C@@H](Cc1nc2ccccc2n1C)C(=O)N[C@H](C(=O)N[C@@H](CCCCN)C(=O)NC(c1ccccc1)c1ccccc1)[C@@H](C)CC [Example 136] is ____.
Result: > 5 µM

Problem: Given CC[C@H](C)[C@@H](CN)NC(=O)[C@H](Cc1nc2ccc(C(C)C)cc2s1)NC=O [Example 48] , state its recorded IC50.
Result: > 5 µM

====

Test Target: DCN1 (Homo sapiens (Human), UniProt Q96GG9)
Test Summary: Competitive FP binding assay
Condition: read-out: Binding affinity to DCN1 (IC50 (nM))
Endpoint Name: IC50 (nM)

The following compounds have reported results that may help.
CCC(=O)N[C@@H](Cc1nc2ccc(F)cc2s1)C(=O)N[C@H](C(=O)N[C@@H](CCCCN)C(=O)NC(c1ccccc1)c1ccccc1)C1CCCC1 [Example 28]    413
CCC(=O)N[C@@H](Cc1ccc2ccccc2c1)C(=O)N[C@H](C(=O)N[C@@H](CCCCNC1CCN(C)CC1)C(=O)NC(c1ccc(F)cc1)c1ccc(F)cc1)C1CCCC1 [Example 144]    273

P: CCC(=O)N[C@@H](Cc1ccc2ccccc2c1)C(=O)N[C@H](C(=O)N[C@@H](CCCCNC1CCN(C)CC1)C(=O)NC(c1ccccc1)c1ccccc1)C1CCCC1 [Example 147]
Q: CCC(=O)N[C@@H](Cc1ccc2ccccc2c1)C(=O)N[C@H](C(=O)N[C@@H](CCCCN)C(=O)N[C@@H]1CCc2ccccc21)[C@@H](C)CC [Example 13]
R: CCC(=O)N[C@@H](Cc1nc2ccc(C(C)C)cc2s1)C(=O)N[C@H](CNC(=O)NC1CCN(C)CC1)C1CCCCC1 [Example 75]
S: CCC(=O)N[C@@H](Cc1nc2ccc(C(C)C)cc2s1)C(=O)N[C@H](CNC(=O)C1CCN(CCF)CC1)C1CCCCC1 [Example 74]
Problem: Sort the 4 compounds by IC50; largest first, smallest last. Thanks in advance for listing the labels in the requested order.
Result: Q, P, S, R
(Q: 913 nM, P: 354 nM, S: 112 nM, R: 75.6 nM)

====

Test Target: DCN1 (Homo sapiens (Human), UniProt Q96GG9)
Test Summary: Competitive FP binding assay
Condition: bounds given in μM; read-out: Binding affinity to DCN1 (IC50)
Square brackets hold non-standard residues; d marks the D form. Peptide text beside a SMILES is read from it. * marks the point of attachment. Ala(6-iPr-benzothiazol-2-yl) = CC(C)c1ccc2nc(C[C@H](N)C(=O)O)sc2c1; Gly(piperidin-4-yl) = N[C@H](C(=O)O)C1CCNCC1; 2Nal = N[C@@H](Cc1ccc2ccccc2c1)C(=O)O; Lac = C[C@H](O)C(=O)O; Propionyl = CCC(=O)*
Quick reference for IC50 among some molecules

The following molecules have reported results that may help.
CCC(=O)N[C@@H](Cc1cn(-c2cccc(Cl)c2)cn1)C(=O)N[C@H](CN)Cc1ccccc1    > 10 µM
CCC(=O)N[C@@H](Cc1cccnc1)C(=O)N[C@H](C(=O)N[C@@H](CCCCN)C(=O)NC(c1ccccc1)c1ccccc1)[C@@H](C)CC    > 10 µM
CCC(=O)N[C@@H](Cc1nc2c(F)cccc2s1)C(=O)N[C@H](C(=O)N[C@@H](CCCCN)C(=O)NC(c1ccccc1)c1ccccc1)C1CCCC1    > 3 µM

Problem: Request: IC50, test system DCN1 (Homo sapiens (Human), UniProt Q96GG9), entry CCC(=O)N[C@@H](Cc1nc2ccc(C(C)C)cc2s1)C(=O)N[C@@H](CN)Cc1ccccc1 (stereo in doubt) [Example 91]
Result: > 10 µM

Problem: Quick check: IC50 on DCN1 (Homo sapiens (Human), UniProt Q96GG9), item CCC(=O)N[C@H](Cc1nc2ccc(Cl)cc2s1)C(=O)N[C@H](C(=O)N[C@@H](CCCCN)C(=O)N[C@@H]1CNCc2ccccc21)C1CCOCC1 ?
Result: > 1 µM

Problem: Which IC50 is reported with DCN1 (Homo sapiens (Human), UniProt Q96GG9) for this entry: CCC(=O)N[C@@H](Cc1nc2ccc(C(C)C)cc2s1)C(=O)N[C@@H](CNC(=O)CCN1CCOCC1)Cc1ccccc1 (stereo in doubt) ?
Result: > 10 µM

Problem: # returns recorded IC50 (system: DCN1 (Homo sapiens (Human), UniProt Q96GG9)) for CC(C)c1ccc2nc(C[C@H](NC(=O)C3CC3)C(=O)NCCN)sc2c1
Result: > 10 µM

Problem: // fetch DCN1 (Homo sapiens (Human), UniProt Q96GG9) IC50 for CCC(=O)N[C@@H](Cc1ccc2ccccc2c1)C(=O)N[C@@H](CC(F)(F)F)C(=O)N[C@@H](CCCCN)C(=O)NC(c1ccccc1)c1ccccc1
Result: > 1 µM

Problem: So what IC50 did CCC(=O)N[C@@H](Cc1ccc2ccccc2c1)C(=O)N[C@H](C(=O)N[C@@H](CCCCN)C(=O)N[C@@H](CN)c1ccccc1)C1CCCC1 get with DCN1 (Homo sapiens (Human), UniProt Q96GG9)?
Result: > 10 µM

Problem: Recall the recorded IC50 for CCC(=O)N[C@@H](Cc1nc2ccc(C(C)C)cc2s1)C(=O)N[C@H](C(=O)N[C@@H](CCCCN)C(=O)N[C@@H](CC(C)C)C(N)=O)C1CCNCC1 [Example 288] (Propionyl-[Ala(6-iPr-benzothiazol-2-yl)][Gly(piperidin-4-yl)]KL-NH2) with DCN1 (Homo sapiens (Human), UniProt Q96GG9) and state it.
Result: > 10 µM

Problem: Missing value: IC50, DCN1 (Homo sapiens (Human), UniProt Q96GG9), entry CCC(=O)N[C@@H](Cc1nc2ccc(Cl)cc2s1)C(=O)N[C@@H](CN)Cc1ccccc1 (stereo in doubt) . Fill in?
Result: > 10 µM

Problem: Lab note: need IC50 for CC[C@H](C)[C@H](NC(=O)[C@H](Cc1ccc2ccccc2c1)NC(=O)[C@H](C)O)C(=O)N[C@@H](CCCCN)C(=O)N[C@@H](CC(C)C)C(N)=O [Example 168] (H-[Lac][2Nal]IKL-NH2) on DCN1 (Homo sapiens (Human), UniProt Q96GG9), anyone have it?
Result: > 10 µM
